A collection of molecules and their measured K
- Species on record: Rattus norvegicus
- MEASUREMENT_NOTES: Open TG-GATES - Regimen: Single
- Type: toxicity, organism-based, Sprague-Dawley
- Parameters: regimen Single, gender Male, age 6 weeks
- MEASUREMENT_SETUP: in vivo, po, 0 mg/kg, 9 h, tissue Plasma, route gavage, dose level Control
# value in meq/L; strip the unit string

Example entries begin here.
| MOLECULE | RESULT_UNITS | K |
| --- | --- | --- |
| O=C(O)c1cc(/N=N/c2ccc(S(=O)(=O)Nc3ccccn3)cc2)ccc1O | meq/L | 3.9 |
| O=C(O)c1cn(C2CC2)c2cc(N3CCNCC3)c(F)cc2c1=O | meq/L | 4.9 |
| C[C@H](CS)C(=O)N1CCC[C@H]1C(=O)O | meq/L | 4.9 |
| NC(=O)N1c2ccccc2C=Cc2ccccc21 [CARBAMAZEPINE] | meq/L | 3.9 |

Alright, here's another molecule for you.
Prompt: GET /values?readout=K&item= "NC(=O)N/N=C/c1ccc([N+](=O)[O-])o1"
Completion: 3.9

* * *

- Species on record: Rattus norvegicus
- MEASUREMENT_NOTES: Open TG-GATES - Regimen: Daily Repeat
- Assay type: toxicity, organism-based, Sprague-Dawley
- Set-up: regimen Daily Repeat, gender Male, age 6 weeks
- MEASUREMENT_SETUP: in vivo, po, 0 mg/kg, 72 h, tissue Plasma, route gavage, dose level Control, time 3 day
REPORTED_PROPERTY: K (meq/L)
# value in meq/L; strip the unit string

Prompt: GET /values?readout=K&item= CCc1cc(C(N)=S)ccn1 [ETHIONAMIDE]
Completion: 4.6

Prompt: GET /values?readout=K&item= "CC(=O)Oc1ccccc1C(=O)O"
Completion: 3.9

Prompt: GET /values?readout=K&item= "C[C@H](CS)C(=O)N1CCC[C@H]1C(=O)O"
Completion: 4.8

Prompt: GET /values?readout=K&item= "O=C(O)c1cc(/N=N/c2ccc(S(=O)(=O)Nc3ccccn3)cc2)ccc1O"
Completion: 4

Prompt: GET /values?readout=K&item= "CN(C)CCC=C1c2ccccc2CCc2ccccc21"
Completion: 4.1

Prompt: GET /values?readout=K&item= "NC(=O)N/N=C/c1ccc([N+](=O)[O-])o1"
Completion: 4.4

Prompt: GET /values?readout=K&item= "COc1ccc(Cc2nccc3cc(OC)c(OC)cc23)cc1OC"
Completion: 4.2

Prompt: GET /values?readout=K&item= CSc1ccc2c(c1)N(CCC1CCCCN1C)c1ccccc1S2 (stereo unspecified)
Completion: 5.2

Prompt: GET /values?readout=K&item= "CCCC(CCC)C(=O)O"
Completion: 4.1

Prompt: GET /values?readout=K&item= "Clc1ccccc1CN1CCc2sccc2C1"
Completion: 4.4

Prompt: GET /values?readout=K&item= NC(=O)N1c2ccccc2C=Cc2ccccc21 [CARBAMAZEPINE]
Completion: 3.8

* * *

- Species: Rattus norvegicus
- MEASUREMENT_NOTES: Open TG-GATES - Regimen: Single
- Format: toxicity, organism-based, Sprague-Dawley
- Set-up: regimen Single, gender Male, age 6 weeks
- MEASUREMENT_SETUP: in vivo, po, 0 mg/kg, 3 h, tissue Blood, route gavage, dose level Control
REPORTED_PROPERTY: Neu (%)
# value in %; strip the unit string

Example entries begin here.
| COMPOUND | RESULT_UNITS | Neu |
| --- | --- | --- |
| O=C(O)c1cc(/N=N/c2ccc(S(=O)(=O)Nc3ccccn3)cc2)ccc1O [SULFASALAZINE] | % | 16.4 |
| CC(=O)Oc1ccccc1C(=O)O [ASPIRIN] | % | 20 |
| Cn1c(=O)c2[nH]cnc2n(C)c1=O.O [THEOPHYLLINE] | % | 13.6 |

Prompt: GET /values?readout=Neu&item= NC(=O)N1c2ccccc2C=Cc2ccccc21 [CARBAMAZEPINE]
Completion: 16

Prompt: GET /values?readout=Neu&item= CCc1cc(C(N)=S)ccn1 [ETHIONAMIDE]
Completion: 11.6

Prompt: GET /values?readout=Neu&item= COc1ccc(Cc2nccc3cc(OC)c(OC)cc23)cc1OC [PAPAVERINE]
Completion: 15

* * *

- Species: Rattus norvegicus
- MEASUREMENT_NOTES: Open TG-GATES - Regimen: Single
- Type: toxicity, organism-based, Sprague-Dawley
- Design: regimen Single, gender Male, age 6 weeks
- MEASUREMENT_SETUP: in vivo, po, 100 mg/kg, 9 h, tissue Plasma, route gavage, dose level Low
REPORTED_PROPERTY: CRE (mg/dL)
# value in mg/dL; strip the unit string

| MOLECULE | RESULT_UNITS | CRE |
| --- | --- | --- |
| O=C(O)c1cn(C2CC2)c2cc(N3CCNCC3)c(F)cc2c1=O [CIPROFLOXACIN] | mg/dL | 0.5 |
| C[C@H](CS)C(=O)N1CCC[C@H]1C(=O)O [CAPTOPRIL] | mg/dL | 0.4 |
| Clc1ccccc1CN1CCc2sccc2C1 [TICLOPIDINE] | mg/dL | 0.4 |

Prompt: GET /values?readout=CRE&item= O=C(O)c1cc(/N=N/c2ccc(S(=O)(=O)Nc3ccccn3)cc2)ccc1O [SULFASALAZINE]
Completion: 0.3

Prompt: GET /values?readout=CRE&item= CCc1cc(C(N)=S)ccn1 [ETHIONAMIDE]
Completion: 0.6

* * *

- Organism: Rattus norvegicus
- MEASUREMENT_NOTES: Open TG-GATES - Regimen: Single
- Assay type: toxicity, organism-based, Sprague-Dawley
- Design: regimen Single, gender Male, age 6 weeks
- MEASUREMENT_SETUP: in vivo, po, 1000 mg/kg, 24 h, tissue Plasma, route gavage, dose level High
A collection of molecules and their measured LDH
# value in IU/L; strip the unit string

| MOLECULE | LDH / IU/L |
| --- | --- |
| C[C@H](CS)C(=O)N1CCC[C@H]1C(=O)O | 100.4 |
| Clc1ccccc1CN1CCc2sccc2C1 | 141 |
| CCc1cc(C(N)=S)ccn1 [ETHIONAMIDE] | 87.6 |

Prompt: GET /values?readout=LDH&item= "O=C(O)c1cn(C2CC2)c2cc(N3CCNCC3)c(F)cc2c1=O"
Completion: 177.2

Prompt: GET /values?readout=LDH&item= "O=C(O)c1cc(/N=N/c2ccc(S(=O)(=O)Nc3ccccn3)cc2)ccc1O"
Completion: 232

* * *

- Organism: Rattus norvegicus
- MEASUREMENT_NOTES: Open TG-GATES - Regimen: Single
- Assay type: toxicity, organism-based, Sprague-Dawley
- Design: regimen Single, gender Male, age 6 weeks
- MEASUREMENT_SETUP: in vivo, po, 300 mg/kg, 24 h, tissue Blood, route gavage, dose level Middle
A collection of compounds and their measured WBC
# value in x10_2/uL; strip the unit string

| COMPOUND | REPORTED_PROPERTY | RESULT_UNITS | TEST_RESULT |
| --- | --- | --- | --- |
| O=C(O)c1cn(C2CC2)c2cc(N3CCNCC3)c(F)cc2c1=O | WBC | x10_2/uL | 96.1 |
| CCc1cc(C(N)=S)ccn1 [ETHIONAMIDE] | WBC | x10_2/uL | 95 |
| O=C(O)c1cc(/N=N/c2ccc(S(=O)(=O)Nc3ccccn3)cc2)ccc1O | WBC | x10_2/uL | 104.1 |

Alright, here's another compound for you.
Prompt: GET /values?readout=WBC&item= "Clc1ccccc1CN1CCc2sccc2C1"
Completion: 76.1

* * *

A collection of molecules and their measured IP
- Species on record: Rattus norvegicus
- MEASUREMENT_NOTES: Open TG-GATES - Regimen: Single
- Type: toxicity, organism-based, Sprague-Dawley
- Design: regimen Single, gender Male, age 6 weeks
- MEASUREMENT_SETUP: in vivo, po, 1000 mg/kg, 3 h, tissue Plasma, route gavage, dose level High
# value in mg/dL; strip the unit string

Example entries begin here.
| MOLECULE | RESULT_UNITS | IP |
| --- | --- | --- |
| O=C(O)c1cn(C2CC2)c2cc(N3CCNCC3)c(F)cc2c1=O [CIPROFLOXACIN] | mg/dL | 10.3 |
| Clc1ccccc1CN1CCc2sccc2C1 [TICLOPIDINE] | mg/dL | 10.7 |
| C[C@H](CS)C(=O)N1CCC[C@H]1C(=O)O [CAPTOPRIL] | mg/dL | 9.8 |
| CCc1cc(C(N)=S)ccn1 [ETHIONAMIDE] | mg/dL | 9.1 |

Prompt: GET /values?readout=IP&item= O=C(O)c1cc(/N=N/c2ccc(S(=O)(=O)Nc3ccccn3)cc2)ccc1O [SULFASALAZINE]
Completion: 9.4
